Target: T1, GIP receptor (human (printed as hGIPR), UniProt P48546 22-466)
T1 sequence (looked up): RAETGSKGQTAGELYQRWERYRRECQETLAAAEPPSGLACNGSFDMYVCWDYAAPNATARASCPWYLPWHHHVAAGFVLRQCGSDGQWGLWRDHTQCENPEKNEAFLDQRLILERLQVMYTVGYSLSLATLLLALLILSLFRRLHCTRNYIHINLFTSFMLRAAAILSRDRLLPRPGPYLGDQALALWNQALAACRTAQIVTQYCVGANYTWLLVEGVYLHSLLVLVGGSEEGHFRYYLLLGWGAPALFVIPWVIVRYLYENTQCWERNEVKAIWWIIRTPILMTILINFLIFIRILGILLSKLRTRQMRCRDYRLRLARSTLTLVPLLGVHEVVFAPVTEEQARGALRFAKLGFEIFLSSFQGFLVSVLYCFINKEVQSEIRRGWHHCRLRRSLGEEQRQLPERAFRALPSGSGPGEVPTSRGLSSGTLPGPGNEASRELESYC
Test: cell-based or functional assay
Starred links: 1 amine or outer side, 2 acyl side, 3 side chain; linkers in the order of their positions; H or OH if unused. Non-standard residues stand in square brackets, D forms with d. Groups on a side chain read outwards from the residue. No end group written: not given here. *: point of attachment. C20 diacid = O=C(O)CCCCCCCCCCCCCCCCCCC(=O)*; C18 diacid = O=C(O)CCCCCCCCCCCCCCCCC(=O)*; γGlu = O=C(O)[C@H](CCC(=O)[*:2])N[*:1]; AEEA = NCCOCCOCC(=O)O; Aib = CC(C)(N)C(=O)O
Sorting guide: entries reporting EC50 hGIPR 0.5% hP (CreLuc) beneath 0.1 nM go in the True pile, the rest go in the False pile.

These recorded examples may help you get a feel for the data.
binder: Y[Aib]EGTFTSDYSI[Aib]LEKQAQ[Aib]AFVQWLIK([AEEA-AEEA-Glu-Glu-Glu-C18 diacid])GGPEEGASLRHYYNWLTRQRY-NH2 (also: TFA salt) [Compound 188]
answerLabel: False
//
binder: Y[Aib]EGTFTSDYSI[Aib]LEKQAQ[Aib]AFVEWLIK([AEEA-AEEA-γGlu-γGlu-γGlu-γGlu-C20 diacid])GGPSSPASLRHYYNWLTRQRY-NH2 (also: TFA salt) [Compound 175]
answerLabel: False

In the record for YXEGTFTSDYSIXLEKQAQXAFVEWLIKGGPSSGASLRHYYNWLTRXRY (Aib at 2, 13, 20; bHGln (beta-homo-L-glutamine) at 47; K28 side chain carries C20DA-gGlu-gGlu-gGlu-gGlu-gGlu-gGlu-eLys; C-terminal amide) [Compound 208] , is EC50 hGIPR 0.5% hP (CreLuc) less than 0.1 nM?
True

In the record for YXEGTFTSDYSIXLEKQAQXAFVEWLIKGGPSSGASLRHYYNLLTRQRY (Aib at 2, 13, 20; K28 side chain carries C20DA-gGlu-gGlu-gGlu-gGlu-gGlu-gGlu-eLys; C-terminal amide) [Compound 195] , is EC50 hGIPR 0.5% hP (CreLuc) less than 0.1 nM?
False

In the record for YXEGTFTSDYSIXLEKQAQRAFVEWLIKGGPSSGASLRHYYNWLTRQRY (Aib at 2, 13; D-Arg at 20; K28 side chain carries C20DA-gGlu-gGlu-gGlu-gGlu-gGlu-gGlu-eLys; C-terminal amide) [Compound 216] , is EC50 hGIPR 0.5% hP (CreLuc) less than 0.1 nM?
False
